# STUDY_SYSTEM: T1, recombinant biotinylated human CD71 extracellular domain (human, UniProt P02786 89-760, biotinylated)
# T1 construct: extracellular domain; also called hCD71; huCD71 ECD
# T1 sequence (P02786 other isoform, or with tags, fused parts or gaps): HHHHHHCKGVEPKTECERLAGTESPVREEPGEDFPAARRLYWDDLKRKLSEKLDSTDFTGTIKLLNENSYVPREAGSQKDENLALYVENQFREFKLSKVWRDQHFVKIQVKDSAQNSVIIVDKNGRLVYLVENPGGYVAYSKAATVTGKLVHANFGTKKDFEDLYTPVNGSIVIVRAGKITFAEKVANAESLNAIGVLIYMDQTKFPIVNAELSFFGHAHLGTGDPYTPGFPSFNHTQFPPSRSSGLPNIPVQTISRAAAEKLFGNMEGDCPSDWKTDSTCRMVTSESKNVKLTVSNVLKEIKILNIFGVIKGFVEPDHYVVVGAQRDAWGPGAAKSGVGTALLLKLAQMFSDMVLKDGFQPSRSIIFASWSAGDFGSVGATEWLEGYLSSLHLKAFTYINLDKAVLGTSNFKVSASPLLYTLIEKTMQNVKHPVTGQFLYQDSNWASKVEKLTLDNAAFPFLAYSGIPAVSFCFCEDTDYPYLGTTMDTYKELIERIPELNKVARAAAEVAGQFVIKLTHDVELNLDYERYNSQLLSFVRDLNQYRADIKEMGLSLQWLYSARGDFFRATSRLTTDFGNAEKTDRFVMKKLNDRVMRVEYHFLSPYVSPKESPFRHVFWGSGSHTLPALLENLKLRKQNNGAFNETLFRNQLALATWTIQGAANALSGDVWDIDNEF
# ASSAY_INFO: solution ELISA
RESULT_TYPE: hCD71, RLU (RLU)
The reply should be a number in RLU, with the unit left off.

These solved cases illustrate the format of a correct answer.
INSERT INTO assay_data (binder, readout_value) VALUES
  ('SEQ ID NO 124 (designed binder, FN3 domain) MLPAPKNLVVSRVTEDSARLSWTAPDAAFDSFYIAYAEPRPDGEAIQLHVPGSERSYDLTGLKPGTEYSVLIHGVKGGLLSSPLLASFTT', '1.54e+06'),
  ('SEQ ID NO 103 (designed binder, FN3 domain) MLPAPKNLVVSRVTEDSARLSWTAPDAAFDSFHIVYHEPRPSGEAIWLHVPGSERSYDLTGLKPGTEYEVGIVSVKGGDLSVPLVAFFTT', 818000),
  ('SEQ ID NO 126 (designed binder, FN3 domain) MLPAPKNLVVSRVTEDSARLSWTAPDAAFDSFFIGYLEPQPPGEAIHLHVPGSERSYDLTGLKPGTEYNVTIQGVKGGFPSIPLHANFTT', '2.74e+06');

Note: attention shifts to another entry.
Reported hCD71, RLU for SEQ ID NO 107 (designed binder, FN3 domain) MSLPAPKNLVVSRVTEDSARLSWTAPDAAFDSFYIAYAEPRPDGEAISLYVPGSERSYDLTGLKPGTEYSVLIHGVKGGLLSSPLSAISTT : what is it?
1.36e+06
